test system: NK-YS (IL-2 2.5 ng/mL); assay: drug sensitivity score (DSS) (DSS units); higher = more sensitive; extreme values may be limits of the assay; conditions: 72 h
ASSAY_READOUT: drug sensitivity score

COMPOUND	RESULT
O=C(/C=C\n1cnc(-c2cc(C(F)(F)F)cc(C(F)(F)F)c2)n1)NNc1cnccn1 [Selinexor] (max concentration tested 10000 nM)	19.4
CCn1c(-c2nonc2N)nc2cnc(Oc3cccc(NC(=O)c4ccc(OCCN5CCOCC5)cc4)c3)cc21 (max concentration tested 10000 nM)	12.6
Cc1cc(C(C)Nc2ccccc2)c2nc(N3CCOCC3)cc(=O)n2c1 (stereo not drawn) [TGX-221] (max concentration tested 10000 nM)	1.43

All values here come from the supplement of paper PMC5908809.
